- tested_target: FGF14:Nav1.6 C-tail complex (Homo sapiens, UniProt Q92915+Q9UQD0)
- Construct: polymerase chain reaction (PCR) amplification of the FGF14 open reading frame (nt 1–855); C-terminal fragment of Nav1.6 (amino acids 1763–1976) fused with CD4ΔC-tail (amino acids 1–395); expressed in transfected cells
- Sequence (Q92915 1-252 isoform Q92915-2): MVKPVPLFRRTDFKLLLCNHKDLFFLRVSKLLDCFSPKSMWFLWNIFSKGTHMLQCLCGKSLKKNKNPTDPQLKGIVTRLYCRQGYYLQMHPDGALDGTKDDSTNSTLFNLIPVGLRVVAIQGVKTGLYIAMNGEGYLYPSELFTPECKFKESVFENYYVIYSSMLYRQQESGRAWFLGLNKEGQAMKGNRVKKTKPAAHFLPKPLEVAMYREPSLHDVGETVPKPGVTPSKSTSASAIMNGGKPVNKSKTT
- Sequence (Q9UQD0 1763-1976 limits assumed): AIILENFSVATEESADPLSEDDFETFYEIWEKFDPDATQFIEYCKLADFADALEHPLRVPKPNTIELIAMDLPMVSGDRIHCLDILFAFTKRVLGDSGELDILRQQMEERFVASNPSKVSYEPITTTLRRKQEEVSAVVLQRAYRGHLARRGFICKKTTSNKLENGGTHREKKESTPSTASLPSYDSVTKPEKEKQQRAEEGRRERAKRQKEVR
- test_name: Split-luciferase complementation assay (LCA) in Clone V double stable HEK293 cells
- Format: cell-based
- stated_conditions: CC_NCI screening; average of Set 1 and Set 2; normalized to 0.3% DMSO controls

# compound, Split Luciferase Assay %Lum Avg (%)
data = [
    ("CN(NC(=O)CC(=O)NN(C)C(=S)c1ccccc1)C(=S)c1ccccc1 [ELESCLOMOL]", 33.07),
    ("COc1cc([C@@H]2c3cc4c(cc3[C@@H](O[C@@H]3O[C@@H]5CO[C@@H](C)O[C@H]5[C@H](O)[C@H]3O)[C@H]3COC(=O)[C@H]23)OCO4)cc(OC)c1O [Etoposide]", 75.17),
    ("NC(=O)c1ccc(I)c([N+](=O)[O-])c1 [BSI-201]", 107.43),
    ("CN(C)CC[C@H](CSc1ccccc1)Nc1ccc(S(=O)(=O)NC(=O)c2ccc(N3CCN(Cc4ccccc4-c4ccc(Cl)cc4)CC3)cc2)cc1[N+](=O)[O-] [ABT-737]", 129.94),
]
